This collection of values is drawn from the supplement of paper PMC10567573.

B1: SNAP91 (parent)
chain: FSTDAFSSPPQGASPVPESSLTAD

Variants of: B1
Experiment: protein stability index of a GFP-peptide fusion (GPS, HEK-293T) (PSI 1-6); higher = more stable;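 further: lentivirally expressed fusions sorted by FACS into six bins by GFP to DsRed ratio, PSI derived from sequencing read proportions per bin multiplied by bin number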
Details: c terminus: a fixed tail appended
Measured protein stability index, listed per entry for reference.
Readout Label: protein stability index

variant_description=S20Y value_observed=2.93
variant_description=F6R value_observed=5.49
variant_description=L21W value_observed=2.92
variant_description=S7K value_observed=2.96
variant_description=D4W value_observed=1.67
variant_description=P15I value_observed=2.67
variant_description=S19C value_observed=3.19
variant_description=S19A value_observed=3.08
variant_description=P9W value_observed=2.24
variant_description=F6P value_observed=5.53
variant_description=T22W value_observed=2.28
variant_description=F6Q value_observed=5.63
variant_description=A5D value_observed=5.61
variant_description=S19R value_observed=2.55
variant_description=S19I value_observed=2.91
variant_description=S20R value_observed=3.13
variant_description=S20N value_observed=3.38
variant_description=P15A value_observed=3.25
